# Test system: bacterial blight in rice
# procedure.summary: whole plant or invertebrate
# run.parameters: Oryza sativa, read-out: efficacy against bacterial blight in rice
readout: pest or weed control at 5 ppm

* CCN(CC)c1cc2c(cc1F)c(=O)c(C(=O)OCCOC)cn2C1CC1 [Compound 420] | ≥ 90%
* O=C(OCCCO)c1cn(C2CC2)c2cc(Cl)c(F)cc2c1=O [Compound 164] | ≥ 90%
* O=C(OCCCCO)c1cn(C2CC2)c2cc(Cl)c(F)cc2c1=O [Compound 177] | ≥ 80%
* CCOCCOC(=O)c1cn(C2CC2)c2cc(Cl)c(F)cc2c1=O [Compound 153] | ≥ 90%
* COCCCOC(=O)c1cn(C2CC2)c2cc(OC)c(F)cc2c1=O [Compound 323] | ≥ 90%
* COCCOC(=O)c1cn(C2CC2)c2cc(SCC(F)(F)F)c(F)cc2c1=O [Compound 390] | ≥ 90%
* O=C(OCCO)c1cn(C2CC2)c2cc(OCC(F)(F)F)ccc2c1=O [Compound 360] | ≥ 80%
* COCCOC(=O)c1cn(C2CC2)c2cc(OC)ccc2c1=O [Compound 353] | ≥ 80%
* COCCCOC(=O)c1cn(C2CC2)c2cc(F)ccc2c1=O [Compound 208] | ≥ 90%
* CC(C)(C)Oc1cc2c(cc1F)c(=O)c(C(=O)OCCO)cn2C1CC1 [Compound 270] | ≥ 90%
* COCCOC(=O)c1cn(C2CC2)c2cc(SC)c(F)cc2c1=O [Compound 381] | ≥ 90%
* CCN(CC)c1cc2c(cc1F)c(=O)c(C(=O)OCCO)cn2C1CC1 [Compound 419] | ≥ 90%
* COCCCCOC(=O)c1cn(C2CC2)c2cc(Cl)c(F)cc2c1=O [Compound 178] | ≥ 90%
* CSc1cc2c(cc1F)c(=O)c(C(=O)OCCO)cn2C1CC1 [Compound 371] | ≥ 90%
* COCCOC(=O)c1cn(C2CC2)c2cc(OC3CCCC3)c(F)cc2c1=O [Compound 296] | ≥ 90%
* O=C(OCCO)c1cn(C2CC2)c2ccc(Cl)cc2c1=O [Compound 44] | ≥ 80%
* CN(C)c1cc2c(cc1F)c(=O)c(C(=O)OCCO)cn2C1CC1 [Compound 413] | ≥ 90%
* CNc1cc2c(cc1F)c(=O)c(C(=O)OCCOC)cn2C1CC1 [Compound 401] | ≥ 90%
* O=C(OCCCO)c1cn(C2CC2)c2cc(F)ccc2c1=O [Compound 207] | ≥ 90%
* COCCOC(=O)c1cn(C2CC2)c2cc(OC)c(F)cc2c1=O [Compound 281] | ≥ 90%
* CNc1cc2c(cc1F)c(=O)c(C(=O)OCCO)cn2C1CC1 [Compound 400] | ≥ 90%
* COCCOC(=O)c1cn(C2CC2)c2cc(N(C)C)c(F)cc2c1=O [Compound 414] | ≥ 90%
* O=C(OCCO)c1cn(C2CC2)c2cc(F)ccc2c1=O [Compound 194] | ≥ 80%
* CCOc1cc2c(cc1F)c(=O)c(C(=O)OCCO)cn2C1CC1 [Compound 265] | ≥ 90%
* O=C(OCCOC1CC1)c1cn(C2CC2)c2cc(Cl)c(F)cc2c1=O [Compound 160] | ≥ 80%
* COCCOC(=O)c1cn(C2CC2)c2cc(F)ccc2c1=O [Compound 195] | ≥ 90%
* CCOc1cc2c(cc1F)c(=O)c(C(=O)OCCCOC)cn2C1CC1 [Compound 315] | ≥ 90%
* CCOc1cc2c(cc1F)c(=O)c(C(=O)OCCOC(C)C)cn2C1CC1 [Compound 300] | ≥ 90%
* COc1cc2c(cc1F)c(=O)c(C(=O)OCCCO)cn2C1CC1 [Compound 320] | ≥ 90%
* CCOc1cc2c(cc1F)c(=O)c(C(=O)OCCOC1CCCC1)cn2C1CC1 [Compound 307] | ≥ 90%
* CCOCOC(=O)c1cn(C2CC2)c2cc(Cl)c(F)cc2c1=O [Compound 144] | ≥ 80%
* COCCOC(=O)c1cn(C2CC2)c2cc(OCC(F)(F)F)ccc2c1=O [Compound 364] | ≥ 80%
* CCNc1cc2c(cc1F)c(=O)c(C(=O)OCCOC)cn2C1CC1 [Compound 408] | ≥ 90%
* COCOC(=O)c1cn(C2CC2)c2ccc(F)cc2c1=O [Compound 1] | ≥ 80%
* CCOc1cc2c(cc1F)c(=O)c(C(=O)OCCOC)cn2C1CC1 [Compound 282] | ≥ 90%
* O=C(OCCO)c1cn(C2CC2)c2cc(N3CCOCC3)c(F)cc2c1=O [Compound 425] | ≥ 90%
* O=C(OCCO)c1cn(C2CC2)c2cc(N3CCCCC3)c(F)cc2c1=O [Compound 431] | ≥ 90%

Provenance of the data: patent US20250313533A1
